FYI, the data here is from patent US8815775B2.

measurementProtocol: log P by HPLC (EEC Directive 79/831 Annex V.A8)
Assay type: physicochemical
runConditions: HPLC with aqueous formic acid/acetonitrile eluents, pH 2.7; HCOOH; read-out: log P (HCOOH)
endpointName: chromatographic logP
Number only, no unit.

chromatographic logP lookup needed for CC(C)(C)OC(=O)N1CCC(F)(c2nc(Br)cs2)CC1 [Va-1] , thanks.
3.94

Give its chromatographic logP value. Item: CC(C)(C)OC(=O)N1CCC(O)(c2nc(Br)cs2)CC1 [IV-1]
2.74
